# TARGET_OR_SYSTEM: D(1A) dopamine receptor (Homo sapiens, UniProt P21728)
# Sequence (P21728 whole entry): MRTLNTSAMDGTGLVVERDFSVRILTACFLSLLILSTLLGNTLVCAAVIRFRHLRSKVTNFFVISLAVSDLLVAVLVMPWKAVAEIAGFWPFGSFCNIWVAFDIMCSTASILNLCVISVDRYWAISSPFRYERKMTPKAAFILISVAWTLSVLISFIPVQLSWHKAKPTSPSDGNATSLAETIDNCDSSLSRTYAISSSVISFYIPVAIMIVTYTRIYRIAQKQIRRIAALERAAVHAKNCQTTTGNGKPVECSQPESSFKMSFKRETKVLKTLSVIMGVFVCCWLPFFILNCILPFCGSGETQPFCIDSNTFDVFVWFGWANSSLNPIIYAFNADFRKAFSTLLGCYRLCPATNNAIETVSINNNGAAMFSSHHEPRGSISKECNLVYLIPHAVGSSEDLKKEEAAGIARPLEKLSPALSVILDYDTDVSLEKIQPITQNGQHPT
# ASSAY_NAME: DRUGMATRIX: Dopamine D1 radioligand binding (ligand: [3H] SCH-23390)
# Assay type: cell membranes, CHO, Membrane
# PARTICULARS: cho; Not Active = under 50% inhibition at 10 µM; read-out: Ki
REPORTED_PROPERTY: Ki (nM)
Write it as a number; the unit nM goes unstated.

In: Report Ki for "IVERMECTIN" please.
Out: 2260

* * *

Below is a list of entries, each paired with its recorded pIC50 value.
# TARGET_OR_SYSTEM: Alpha-1B adrenergic receptor (Rattus norvegicus, UniProt P15823)
# Sequence (P15823 whole entry): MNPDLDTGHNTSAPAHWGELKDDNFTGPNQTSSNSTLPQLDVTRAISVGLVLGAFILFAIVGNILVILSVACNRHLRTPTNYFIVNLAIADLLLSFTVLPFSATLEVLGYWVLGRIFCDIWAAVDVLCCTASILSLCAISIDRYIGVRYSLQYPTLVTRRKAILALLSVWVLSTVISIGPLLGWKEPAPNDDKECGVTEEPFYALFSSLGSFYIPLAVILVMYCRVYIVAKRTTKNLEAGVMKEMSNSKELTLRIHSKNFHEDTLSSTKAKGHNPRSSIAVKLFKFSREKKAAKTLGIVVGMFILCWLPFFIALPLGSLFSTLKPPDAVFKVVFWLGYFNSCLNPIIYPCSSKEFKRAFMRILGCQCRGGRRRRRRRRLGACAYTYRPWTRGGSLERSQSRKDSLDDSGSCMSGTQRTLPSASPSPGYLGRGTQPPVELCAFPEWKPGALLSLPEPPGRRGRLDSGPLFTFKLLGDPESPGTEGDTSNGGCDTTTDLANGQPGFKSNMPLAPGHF
# ASSAY_NAME: DRUGMATRIX: Alpha-1B adrenergic receptor radioligand binding (ligand: prazosin)
# Format: cell membranes, Wistar, Liver, Membrane
# PARTICULARS: Not Active = under 50% inhibition at 10 µM; read-out: IC50
Quick note: pIC50 means taking -log10 of the concentration in moles per liter.

In: Report pIC50 for CN(C)CCCC1(c2ccc(F)cc2)OCc2cc(C#N)ccc21 (stereo not drawn) please.
Out: 5.48

In: Also "CN1C[C@H](C(=O)N[C@]2(C)O[C@@]3(O)[C@@H]4CCCN4C(=O)[C@H](Cc4ccccc4)N3C2=O)C=C2c3cccc4[nH]cc(c34)C[C@H]21" ?
Out: 8.09

Moving on to another compound below.
In: Report pIC50 for "CNCCC=C1c2ccccc2CCc2ccccc21" please.
Out: 6.68
